Cited source for all entries: paper PMC12670160

Kindly state % viability for each of the entries shown.
# Test system: M. mycetomatis strain mm55
# RECORDED_CONDITIONS: primary screen, metabolic activity vs growth control; 96 h, 2 µM; inhibitor
Where a name gives a salt, the structure may show the parent alone. Out of some 5,300 compounds screened, about 130 (2.5%) showed an effect of 50% or more. The full list was thinned out, with strong results kept by preference.
One number for each entry, in %.

For orientation, consider the following solved cases.
COMPOUND | ATTRIBUTE_MEASURED | OBSERVED_MEASUREMENT
c1ccc(-c2ccc(CNc3nc(-c4ccccn4)nnc3-c3ccccc3)cc2)cc1 | % viability | 2.835
CCNCC(O)c1cccc(O)c1 (centres unmarked) | % viability | 42.26
C[C@]12C=CC(=O)C=C1CCC1C2[C@@H](O)C[C@@]2(C)C1CC[C@]2(O)C(=O)COC(=O)CCC(=O)O (some centres unmarked) [ONC0004028, prednisolone hemisuccinate] | % viability | 62.59
CNC[C@H](O)c1cccc(O)c1 [ONC0000459, lphenylephrine hydrochloride] | % viability | 72.58
C[C@H](N)[C@H](O)c1cccc(O)c1 [ONC0003110, metaraminol bitartrate] | % viability | 76.38

Provide each entry's % viability from the list below.
1. Cc1nc2ccc(CN(C)c3ccc(C(=O)N[C@@H](CCC(=O)O)C(=O)O)s3)cc2c(=O)[nH]1
2. COc1cccc(/C=N/C=N/c2cccc(OC)c2)c1
3. CC[C@]12CCCN3CCc4c(n(c5ccccc45)C(=O)C1)[C@@H]32

[A]
[134.6, 75.27, 44.28]
